Could you please report measured IC50 for the items listed next?
system.name: UniProtKB P56373
Sequence (P56373 whole entry): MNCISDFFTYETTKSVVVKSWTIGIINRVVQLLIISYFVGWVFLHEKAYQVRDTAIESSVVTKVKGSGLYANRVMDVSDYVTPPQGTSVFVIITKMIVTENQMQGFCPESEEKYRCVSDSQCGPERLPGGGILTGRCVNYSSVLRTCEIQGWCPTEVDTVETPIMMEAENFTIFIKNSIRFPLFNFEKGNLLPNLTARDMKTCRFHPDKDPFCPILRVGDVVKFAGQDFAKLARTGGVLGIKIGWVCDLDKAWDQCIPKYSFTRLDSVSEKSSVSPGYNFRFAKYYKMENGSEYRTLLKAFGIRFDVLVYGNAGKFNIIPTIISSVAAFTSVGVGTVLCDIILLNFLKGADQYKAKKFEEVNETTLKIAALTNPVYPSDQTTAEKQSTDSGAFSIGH
assay.summary: Evaluation of human P2X3 receptor inhibitory activity (Test Example 1)
experimental.setup: C6BU-1 cell transfected with human P2X3 receptor gene, FLIPR 384
Description: […]
Your answer should be a plain number; it is taken to be in nM.

Value lookup for IC50; key = CC(C)(Cn1c(=O)[nH]/c(=N\c2ccc(Oc3cc(Cl)ncn3)cc2)n(Cc2ccc(Cl)cc2)c1=O)C(=O)O 10

Value lookup for IC50; key = COC(=O)[C@@H](C)Cn1c(=O)[nH]/c(=N\c2ccc(Oc3cncc(C)c3)cc2)n(Cc2ccc(Cl)cc2)c1=O 10

Value lookup for IC50; key = C[C@@H](Cn1c(=O)[nH]/c(=N\c2ccc(Oc3ccccn3)cc2)n(Cc2ccc(CF)cc2)c1=O)C(=O)O 11

Value lookup for IC50; key = COC(=O)[C@@H](C)Cn1c(=O)[nH]/c(=N\c2ccc(Oc3ncccc3F)cc2)n(Cc2ccc(C)cc2)c1=O 6

Value lookup for IC50; key = COC(=O)[C@@H](C)Cn1c(=O)[nH]/c(=N\c2ccc(Oc3cccnc3)cc2)n(Cc2ccc(Cl)cc2)c1=O 8

Value lookup for IC50; key = Cc1ccc(Cn2c(=O)n(CC(C)(C)C(=O)O)c(=O)[nH]/c2=N\c2ccc(Oc3ccccn3)cc2)cc1 8
